- System: SW 982 tumor spheroid viability
- assay summary: Anticancer human tumor SW 982 cell line growth inhibition; active = viability on the fitted dose curve at most 10% of control; inactive = the rest;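 also: spheroids exposed to compound for 7 days before readout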
- assay conditions: second compound 0.3 µM; first compound 0.1 µM; spheroids with HUVEC and MSC
Choose the fitting class; nothing outside 1 = active, 0 = inactive is accepted.

Q: Which outcome did this test record for the compound CC(C)n1c(=O)n(C)c2cnc3cc(F)c(-c4ccc(OCCCN5CCCCC5)nc4)cc3c21 + CC[C@@]1(O)C(=O)OCc2c1cc1n(c2=O)Cc2cc3c(CN(C)C)c(O)ccc3nc2-1 ?
Result: 0

Q: Answer briefly: the call reported for CC1COCCN1c1cc(-c2ccnn2C)c2ccnc(-c3ccn[nH]3)c2n1 (stereo unspecified) + CC[C@@]1(O)C(=O)OCc2c1cc1n(c2=O)Cc2cc3c(CN(C)C)c(O)ccc3nc2-1 in this assay.
Result: 1

Q: Please state the recorded outcome for this compound: [2H]c1nc(C)nc([2H])c1-c1cc(NC[C@@H](C)c2cccc3c(C(=O)NC)ccnc23)ncn1 + CC[C@@]1(O)C(=O)OCc2c1cc1n(c2=O)Cc2cc3c(CN(C)C)c(O)ccc3nc2-1
Result: 0

Q: For COc1cc(C)[nH]c(=O)c1CN1CCc2c(Cl)cc(C(OC)C3COC3)c(Cl)c2C1=O (stereo unspecified) + CC[C@@]1(O)C(=O)OCc2c1cc1n(c2=O)Cc2cc3c(CN(C)C)c(O)ccc3nc2-1 , what call appears in the results of this test?
Result: 0

Q: What did this assay record as the result for COc1ccc([C@@H](O)c2cc(-c3ncnc4cc(N5CCOCC5)ccc34)c(F)cc2Cl)nn1 + CC[C@@]1(O)C(=O)OCc2c1cc1n(c2=O)Cc2cc3c(CN(C)C)c(O)ccc3nc2-1 ?
Result: 0

Q: Write down the call the test reported for this compound. Item: Cc1cc(C)c(CNC(=O)c2cc(-c3ccc(CN4CCOCC4)cc3)cc3c2cnn3C2CCCC2)c(=O)[nH]1 + CC[C@@]1(O)C(=O)OCc2c1cc1n(c2=O)Cc2cc3c(CN(C)C)c(O)ccc3nc2-1
Result: 0

* * *

- System: SW 982 tumor spheroid viability
- assay summary: Anticancer human tumor SW 982 cell line growth inhibition; active = viability on the fitted dose curve at most 10% of control; inactive = the rest;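 also: spheroids exposed to compound for 7 days before readout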
- assay conditions: second compound 0.000949 µM; first compound 0.949 µM; spheroids with HUVEC and MSC
I would appreciate it if you answered using one of these outcomes: True for active, False for inactive

Q: Hey, what did the test say about CNCc1ccc(-c2cc(-c3nc(-c4ccc(S(=O)(=O)C(C)C)cc4)cnc3N)on2)cc1 + COc1cc2c(cc1O)CCNC21CSC2c3c(OC(C)=O)c(C)c4c(c3C(COC1=O)N1C(O)C3Cc5cc(C)c(OC)c(O)c5C(C21)N3C)OCO4 ?
Result: True

Q: Dear colleague, could you share the recorded outcome for Cn1ncnc1[C@H]1c2n[nH]c(=O)c3cc(F)cc(c23)N[C@@H]1c1ccc(F)cc1 + COc1cc2c(cc1O)CCNC21CSC2c3c(OC(C)=O)c(C)c4c(c3C(COC1=O)N1C(O)C3Cc5cc(C)c(OC)c(O)c5C(C21)N3C)OCO4 when you have a moment?
Result: False

Q: How was O=C(c1cc(Cc2n[nH]c(=O)c3ccccc23)ccc1F)N1CCN(C(=O)C2CC2)CC1 + COc1cc2c(cc1O)CCNC21CSC2c3c(OC(C)=O)c(C)c4c(c3C(COC1=O)N1C(O)C3Cc5cc(C)c(OC)c(O)c5C(C21)N3C)OCO4 classified in this test?
Result: False

Q: Recorded test call requested for Cc1sc2c(c1C)C(c1ccc(Cl)cc1)=NC(CC(=O)Nc1ccc(O)cc1)c1nnc(C)n1-2 (centres undefined) + COc1cc2c(cc1O)CCNC21CSC2c3c(OC(C)=O)c(C)c4c(c3C(COC1=O)N1C(O)C3Cc5cc(C)c(OC)c(O)c5C(C21)N3C)OCO4
Result: True

* * *

- Test system: SW 982 tumor spheroid viability
- assay summary: Anticancer human tumor SW 982 cell line growth inhibition;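 also: spheroids exposed to compound for 7 days before readout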
- assay conditions: second compound 0.0949 µM; first compound 0.316 µM; stronger effect = lower value; spheroids with HUVEC and MSC
assay endpoint: viability, T/C (%)
Expressed in %, but write only the number.

Q: Find the recorded viability, T/C belonging to CC1COCCN1c1cc(-c2ccnn2C)c2ccnc(-c3ccn[nH]3)c2n1 (stereo not drawn) + CC[C@@]1(O)C(=O)OCc2c1cc1n(c2=O)Cc2cc3c(CN(C)C)c(O)ccc3nc2-1 and report it.
Result: 9.49

Q: Item Cc1cc(C)c(CNC(=O)c2cc(-c3ccc(CN4CCOCC4)cc3)cc3c2cnn3C2CCCC2)c(=O)[nH]1 + CC[C@@]1(O)C(=O)OCc2c1cc1n(c2=O)Cc2cc3c(CN(C)C)c(O)ccc3nc2-1 has what recorded viability, T/C?
Result: 85.2

Q: Entry COc1ccc([C@@H](O)c2cc(-c3ncnc4cc(N5CCOCC5)ccc34)c(F)cc2Cl)nn1 + CC[C@@]1(O)C(=O)OCc2c1cc1n(c2=O)Cc2cc3c(CN(C)C)c(O)ccc3nc2-1 : reported viability, T/C = ?
Result: 60.5

* * *

Hi there, I'd appreciate the recorded viability, T/C for every entry that follows.
- Test system: SW 982 tumor spheroid viability
- assay summary: Anticancer human tumor SW 982 cell line growth inhibition;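 also: spheroids exposed to compound for 7 days before readout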
- assay conditions: second compound 1 µM; first compound 1 µM; stronger effect = lower value; spheroids with HUVEC and MSC
Give just the number in %; leave the unit off.

Q: Entry COc1ccc([C@@H](O)c2cc(-c3ncnc4cc(N5CCOCC5)ccc34)c(F)cc2Cl)nn1 + Cn1nnc2c(C(N)=O)ncn2c1=O has what viability, T/C?
Result: 84.9

Q: // returns reported viability, T/C for input CC1COCCN1c1cc(-c2ccnn2C)c2ccnc(-c3ccn[nH]3)c2n1 (stereo unspecified) + Cn1nnc2c(C(N)=O)ncn2c1=O
Result: 15.4

Q: Quick one: viability, T/C of COc1cc(C)[nH]c(=O)c1CN1CCc2c(Cl)cc(C(OC)C3COC3)c(Cl)c2C1=O (stereo unspecified) + Cn1nnc2c(C(N)=O)ncn2c1=O ?
Result: 113

Q: // query viability, T/C value for entry CC(C)n1c(=O)n(C)c2cnc3cc(F)c(-c4ccc(OCCCN5CCCCC5)nc4)cc3c21 + Cn1nnc2c(C(N)=O)ncn2c1=O
Result: 85.4

Q: Name the recorded viability, T/C for [2H]c1nc(C)nc([2H])c1-c1cc(NC[C@@H](C)c2cccc3c(C(=O)NC)ccnc23)ncn1 + Cn1nnc2c(C(N)=O)ncn2c1=O .
Result: 103

Q: Entry Cc1cc(C)c(CNC(=O)c2cc(-c3ccc(CN4CCOCC4)cc3)cc3c2cnn3C2CCCC2)c(=O)[nH]1 + Cn1nnc2c(C(N)=O)ncn2c1=O : reported viability, T/C = ?
Result: 103

* * *

- Test system: SW 982 tumor spheroid viability
- assay summary: Anticancer human tumor SW 982 cell line growth inhibition;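 also: spheroids exposed to compound for 7 days before readout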
- assay conditions: second compound 100 µM; first compound 1 µM; stronger effect = lower value; spheroids with HUVEC and MSC
Would you mind telling me the reported viability, T/C of each entry?

Q: Please report the recorded viability, T/C for COc1cc(C)[nH]c(=O)c1CN1CCc2c(Cl)cc(C(OC)C3COC3)c(Cl)c2C1=O (stereo unspecified) + Cn1nnc2c(C(N)=O)ncn2c1=O .
Result: 64.3%

Q: Which value of viability, T/C has been reported for CC1COCCN1c1cc(-c2ccnn2C)c2ccnc(-c3ccn[nH]3)c2n1 (stereo unspecified) + Cn1nnc2c(C(N)=O)ncn2c1=O in the records?
Result: 9.31%

Q: Entry under review: Cc1cc(C)c(CNC(=O)c2cc(-c3ccc(CN4CCOCC4)cc3)cc3c2cnn3C2CCCC2)c(=O)[nH]1 + Cn1nnc2c(C(N)=O)ncn2c1=O . Reported viability, T/C?
Result: 63.5%

Q: viability, T/C lookup needed for CC(C)n1c(=O)n(C)c2cnc3cc(F)c(-c4ccc(OCCCN5CCCCC5)nc4)cc3c21 + Cn1nnc2c(C(N)=O)ncn2c1=O , thanks.
Result: 54%

Q: I have this molecule here, COc1ccc([C@@H](O)c2cc(-c3ncnc4cc(N5CCOCC5)ccc34)c(F)cc2Cl)nn1 + Cn1nnc2c(C(N)=O)ncn2c1=O , and I need its recorded viability, T/C.
Result: 39.3%

Q: Request the reported viability, T/C associated with [2H]c1nc(C)nc([2H])c1-c1cc(NC[C@@H](C)c2cccc3c(C(=O)NC)ccnc23)ncn1 + Cn1nnc2c(C(N)=O)ncn2c1=O
Result: 60.9%

* * *

- Test system: SW 982 tumor spheroid viability
- assay summary: Anticancer human tumor SW 982 cell line growth inhibition;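 also: spheroids exposed to compound for 7 days before readout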
- assay conditions: curve of first compound; second compound 0.0949 µM; spheroids with HUVEC and MSC
assay endpoint: pIC50
The quantity pIC50 is defined as the negative base-10 logarithm of the molar concentration.

Q: Record request: pIC50 value, item CC(C)n1c(=O)n(C)c2cnc3cc(F)c(-c4ccc(OCCCN5CCCCC5)nc4)cc3c21 + CC[C@@]1(O)C(=O)OCc2c1cc1n(c2=O)Cc2cc3c(CN(C)C)c(O)ccc3nc2-1
Result: 6.29

Q: If you can, please state the reported pIC50 value of Cn1ncnc1[C@H]1c2n[nH]c(=O)c3cc(F)cc(c23)N[C@@H]1c1ccc(F)cc1 + CC[C@@]1(O)C(=O)OCc2c1cc1n(c2=O)Cc2cc3c(CN(C)C)c(O)ccc3nc2-1 .
Result: 5.79

Q: Requested field: pIC50. Item: Cc1sc2c(c1C)C(c1ccc(Cl)cc1)=NC(CC(=O)Nc1ccc(O)cc1)c1nnc(C)n1-2 (stereo not given) + CC[C@@]1(O)C(=O)OCc2c1cc1n(c2=O)Cc2cc3c(CN(C)C)c(O)ccc3nc2-1
Result: 6.35

Q: What value of pIC50 has been recorded for this entry: COc1ccc([C@@H](O)c2cc(-c3ncnc4cc(N5CCOCC5)ccc34)c(F)cc2Cl)nn1 + CC[C@@]1(O)C(=O)OCc2c1cc1n(c2=O)Cc2cc3c(CN(C)C)c(O)ccc3nc2-1
Result: 6.28
